target: T1, Nat1 (LTIITLE) (also: TFA salt); experiment: cell-based or functional assay
T1 peptide: LTIITLE
Non-standard residues stand in square brackets, D forms with d. No end group written: not given here.
IC50, Thiofiavin T aggregation assay listing for selected binders.
Reply with just the number (in nM).

Check out these entries, answers already filled in.
[dI][dL][dK][dW][dL][dW] [ilkwlw] :: 1340
LFIYYQR :: 440

Provide measured IC50, Thiofiavin T aggregation assay value, entry: YRLRYLR
99

Provide measured IC50, Thiofiavin T aggregation assay value, entry: [dQ][dW][dR][dW][dR][dH][dR] [qwrwrhr]
3140
